# maps each entry to its apparent KD of MS2 coat protein
System: MS2 coat protein
Experiment: apparent KD of MS2 coat protein; designed switch direction (-1 OFF switch, 1 ON switch): -1; higher = weaker reporter binding
Conditions: input ligand: FMN 200 uM
Form entry: value (nM) — number only.

GACUAGGCAGGAUAUACAUGAGGAUCACCCAUGUGUCUGCGUUGGGCACGUGAACACCGUAGAAGGGCCUUGAC [ChP 13.04.2015 #14] (Eterna round: R96, puzzle: Exclusion 3) = 36.4

Input: Param item = GGUCAGAUGGUAGGAUAUCCAUAUCGAGUGACCCUUUCAUAACAUGAGGAUCACCCAUGUUGGUGGGAGAAGGGCCGUACGGCG [salish99_ExNG02_R04_019] (Eterna round: R96, puzzle: Exclusion NG 2) ; retrieve measured apparent KD of MS2 coat protein.
Output: 17.2
